Data origin: ChEMBL document CHEMBL5506035

Property: Kd; scope: individual compounds
target: Glutamate carboxypeptidase 2 (Homo sapiens, UniProt Q04609); test: Binding affinity to human recombinant PSMA assessed as dissociation constant by fluorescence polarization assay
Sequence (Q04609 whole entry): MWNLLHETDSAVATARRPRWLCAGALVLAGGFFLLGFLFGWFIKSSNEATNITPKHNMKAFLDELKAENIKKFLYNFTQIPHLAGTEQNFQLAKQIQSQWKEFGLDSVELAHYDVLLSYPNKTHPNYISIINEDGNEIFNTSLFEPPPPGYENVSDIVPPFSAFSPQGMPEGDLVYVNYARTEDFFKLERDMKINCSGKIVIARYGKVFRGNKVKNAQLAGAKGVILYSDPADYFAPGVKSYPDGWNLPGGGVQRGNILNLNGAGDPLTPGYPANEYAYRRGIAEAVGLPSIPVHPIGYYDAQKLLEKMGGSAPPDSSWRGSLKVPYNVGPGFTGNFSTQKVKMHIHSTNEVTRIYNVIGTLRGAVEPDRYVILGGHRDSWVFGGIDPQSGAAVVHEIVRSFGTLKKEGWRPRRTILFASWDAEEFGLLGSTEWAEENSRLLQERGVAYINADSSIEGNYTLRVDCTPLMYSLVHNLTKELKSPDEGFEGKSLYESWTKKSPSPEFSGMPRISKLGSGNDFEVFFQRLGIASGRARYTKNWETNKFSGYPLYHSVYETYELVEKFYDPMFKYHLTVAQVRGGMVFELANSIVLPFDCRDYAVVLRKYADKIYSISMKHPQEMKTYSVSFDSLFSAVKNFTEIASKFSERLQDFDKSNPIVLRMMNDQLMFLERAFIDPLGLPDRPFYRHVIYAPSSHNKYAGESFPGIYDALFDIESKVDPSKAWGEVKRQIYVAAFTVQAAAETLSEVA

CC(=O)N1C[C@H](NC(=O)c2c[nH]nn2)C[C@H]1C(=O)N[C@@H](CCCCNC(=S)Nc1ccc2c(c1)C(=O)OC21c2ccc(O)cc2Oc2cc(O)ccc21)C(=O)O	> 1 µM

Incoming: Consider the compound COc1ccc(C2=[N+]3C(=Cc4c(C)c(CCC(=O)NCCCC[C@H](NC(=O)[C@@H]5C[C@@H](NC(=O)c6c[nH]nn6)CN5C(=O)c5cnoc5C5CC5)C(=O)O)c(C)n4[B-]3(F)F)C=C2)cc1 and give its measured Kd.
Outgoing: > 1 µM

Incoming: Requested field: Kd. Item: O=C(N[C@@H]1C[C@@H](C(=O)NCCCCCCNC(=S)Nc2ccc3c(c2)C(=O)OC32c3ccc(O)cc3Oc3cc(O)ccc32)N(C(=O)c2cnoc2C2CC2)C1)c1c[nH]nn1
Outgoing: 0.048 µM

Incoming: Quick check: Kd of CC(C)c1nocc1C(=O)N1C[C@H](NC(=O)c2c[nH]nn2)C[C@H]1C(=O)N[C@@H](CCCCNC(=S)Nc1ccc2c(c1)C(=O)OC21c2ccc(O)cc2Oc2cc(O)ccc21)C(=O)O ?
Outgoing: > 1 µM

Incoming: Please give the measured Kd for this compound: N=c1ccc2c(-c3ccc(C(=O)NCCCC[C@H](NC(=O)[C@@H]4C[C@@H](NC(=O)c5c[nH]nn5)CN4C(=O)c4cnoc4C4CC4)C(=O)O)cc3C(=O)O)c3ccc(N)c(S(=O)(=O)O)c3oc-2c1S(=O)(=O)O
Outgoing: > 1 µM
